The measurements presented in this section are drawn from PubChem BioAssay.

tested on: F380Y; experiment: modulators of BK channel variants, profiling panel, selectivity assay, cell-based, U2OS BacMam, thallium flux, beta subunits (AID 1259406); details: at 30 µM;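 note: initial slope of Thallos dye fluorescence rise after thallium is added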
# note: boundary value 0.03 maps to not satisfied; log fold change Tl+ flux below it maps to satisfied

Reference set, count: 4
Cc1ccc(S(=O)(=O)N2CN3CCN(C3)C2)cc1; satisfied
NC(=O)CS(=O)C(c1ccccc1)c1ccccc1 (configuration not stated); satisfied
COC(=O)N1CCN(C(=O)Cc2ccc(Cl)c(Cl)c2)C(CN2CCCC2)C1 (configuration not stated); not satisfied
c1ccc2c3c([nH]c2c1)CNCC3; satisfied

Exercise: Find out if reported log fold change Tl+ flux for Clc1ccc(COC(Cn2ccnc2)c2ccc(Cl)cc2Cl)c(Cl)c1 (configuration not stated) is less than 0.03
Solution: satisfied

Exercise: Now consider "CC[C@]1(O)CC[C@H]2[C@@H]3CCC4=CCCC[C@@H]4[C@H]3CC[C@@]21C" and answer again.
Solution: not satisfied

Exercise: Another compound: CCC(COC(=O)c1cc(OC)c(OC)c(OC)c1)(c1ccccc1)N(C)C (configuration not stated)
Solution: satisfied

Exercise: Proceed to "CN1CC[C@@H](c2ccc(F)cc2)[C@H](COc2ccc3c(c2)OCO3)C1"
Solution: not satisfied

Exercise: Same read-out for "C#CCN(C)[C@H](C)Cc1ccccc1" ?
Solution: satisfied

Exercise: Next up: "CN=C1CN(O)C(c2ccccc2)=c2cc(Cl)ccc2=N1"
Solution: not satisfied

Exercise: Can you check "CS(=O)(=O)Nc1ccc(Cc2noc(-c3ccc4[nH]cc(CCN)c4c3)n2)cc1" next?
Solution: satisfied

Exercise: What about CC12CCC(=O)C=C1CCC1C2CCC2(C)C(O)CCC12 (configuration not stated) ?
Solution: satisfied

Exercise: Ok, now CN1C(=O)COc2c(C(=O)NC3CN4CCC3CC4)cc(Cl)cc21 (configuration not stated)
Solution: not satisfied

Exercise: Now the same for "NCCc1ccccn1"
Solution: satisfied

Exercise: Same again, this time with "O=C1CN=C(c2ccccc2)c2cc([N+](=O)[O-])ccc2N1"
Solution: satisfied

Exercise: Try this compound too: "C[C@]12CC[C@H](O)CC1=CC[C@@H]1[C@@H]2CC[C@@]2(C)[C@H]1CC[C@]2(C)O"
Solution: satisfied

Exercise: Check "CC(C)c1cccc(C(C)C)c1O" too.
Solution: satisfied
